This section presents compounds with their documented MFC values.
Test system: Nakaseomyces glabratus
test summary: Fungicidal activity against Candida glabrata ATCC 90030 assessed as fungal growth inhibition incubated for 18 to 24 hrs by alamar blue assay
Format: functional
condition context: Nakaseomyces glabratus, ATCC 90030, time 18-24 hrs; read-out: MFC
# value in µM; strip the unit string

Need MFC, item `CCCCCCCCCCCCCCc1c(C)c(C)cn1CCCN` 12

CCCCCCCCCCCCCCC1(O)C(C)=C(C)C2=[N+](C)CCCN21 (configuration not stated) , same question. 5

Input CCCCCCCCCCCCCCC1(O)c2ccccc2C2=[N+](C)CCCN21 (configuration not stated) 16

Another compound: CCCCCCCCCCCCCCC1(O)C(C)=C(C)C2=[N+](Cc3cc(C(F)(F)F)cc(C(F)(F)F)c3)CCCN21 (configuration not stated) 2.5

Same question, CCCCCCCCCCCCCCC1(O)C(C)=C(C)C2=[N+](CC(=O)NCCCNC(=O)OC(C)(C)C)CCCN21 (configuration not stated) this time 14

Further cases:
Using the record for CCCCCCCCCCCCCCC1(O)C(C)=C(C)C2=[N+](CC(=O)OCC)CCCN21 (configuration not stated) , report its MFC. 11

Thanks! And CCCCCCCCCCCCCCC1(O)C(C)=C(C)C2=[N+](Cc3cc(OC)c(OC)c(OC)c3)CCCN21 (configuration not stated) ? 4

Same read-out for CCCCCCCCCCCCCCC1(O)C(C)=C(C)C2=[N+](Cc3ccc(C(F)(F)F)cc3)CCCN21 (configuration not stated) ? 2

Now give it for CCCCCCCCCCCCCCC1(O)C=CC2=[N+](C)CCCN21 (configuration not stated) too. 1.7

// next record CCCCCCCCCCCCCCC1(O)C(C)=C(C)C2=[N+](CC(=O)NCCCN)CCCN21 (configuration not stated) 15

Please do the same for C#CC[N+]1=C2C(C)=C(C)C(O)(CCCCCCCCCCCCCC)N2CCC1 (configuration not stated) as well. 5.2

Lookup CCCCCCCCCCCCCCC1(O)C(C)=C(C)C2=[N+](CC(=O)c3cccc(Cl)c3)CCCN21 (configuration not stated) 4.9

Follow-up item: CCCCCCCCCCCCCCC1(O)C(C)=C(C)C2=[N+](Cc3ccc(F)cc3F)CCCN21 (configuration not stated) 1.8

How about CCCCCCCCCCCCCCC1(O)C(C)=C(C)C2=[N+](CC(=O)NCCCC)CCCN21 (configuration not stated) ? 5.9

Now consider `C[C@@H]1[C@H](O)[C@@H](C)/C=C/C=C/C=C/C=C/C=C/C=C/C=C/[C@H](O[C@@H]2O[C@H](C)[C@@H](O)[C@H](N)[C@@H]2O)C[C@@H]2O[C@](O)(C[C@@H](O)C[C@@H](O)[C@H](O)CC[C@@H](O)C[C@@H](O)CC(=O)O[C@H]1C)C[C@H](O)[C@H]2C(=O)O` . 0.65

Then what about the compound CCCCCCCCCCCCCCC1(O)C(C)=C(C)C2=[N+](Cc3cccc(C(F)(F)F)c3)CCCN21 (configuration not stated) ? 2

Queued: CCCCCCCCCCCCCCC1(O)C(C)=C(C)C2=[N+](C/C=C/c3ccccc3)CCCN21 (configuration not stated) 4.1

* * *

Tested on: Candida albicans
test summary: Fungicidal activity against Candida albicans ATCC 90028 assessed as fungal growth inhibition incubated for 18 to 24 hrs by alamar blue assay
Assay type: functional
condition context: Candida albicans, ATCC 90028, time 18-24 hrs; read-out: MFC
Measured MFC, listed per entry.
Answer in µM, number only, no unit symbol.

Worked set:
What measured MFC goes with CCCCCCCCCCCCCCC1(O)C(C)=C(C)C2=[N+](CC(=O)NCCCC)CCCN21 (stereo not drawn) ? 10

Record: `CCCCCCCCCCCCCCc1c(C)c(C)cn1CCCN` 24

Next:
Query (molecule): C[C@@H]1[C@H](O)[C@@H](C)/C=C/C=C/C=C/C=C/C=C/C=C/C=C/[C@H](O[C@@H]2O[C@H](C)[C@@H](O)[C@H](N)[C@@H]2O)C[C@@H]2O[C@](O)(C[C@@H](O)C[C@@H](O)[C@H](O)CC[C@@H](O)C[C@@H](O)CC(=O)O[C@H]1C)C[C@H](O)[C@H]2C(=O)O [AMPHOTERICIN B] ; field requested: MFC 0.97

Values were extracted from ChEMBL document CHEMBL4828718.
